Target: empty disulfide-stabilized HLA-A*02:01(Y84C/A139C) in complex with beta-2 microglobulin (human)
Experiment: isothermal analysis of nanoscale differential scanning fluorimetry (iDSF)
Define the label as label 1 when Kd is strictly less than 8 µM and as label 0 in all remaining cases.

Known results for substances:
PV6 (PMVATV), truncated NV9 variant (peptide) ... label 0
NV6 (NLVPMV), truncated NV9 variant (peptide) ... label 0
NA7 (NLVPMVA), truncated NV9 variant (peptide) ... label 1
NT8 (NLVPMVAT), truncated NV9 variant (peptide) ... label 1

With those in mind, consider the next substance.
Answer whether the substance LV8 (LVPMVATV), truncated NV9 variant (peptide) has Kd strictly less than 8 µM
label 1

###

Recorded AUC dsA2/pep/pep by entry
Biological target: dsA2: HLA-A*02:01(Y84C/A139C) disulfide mutant heavy chain / β2m complex (Homo sapiens, UniProt P04439, D140Y/D185E/D98H/E176V/E277Q/G131W/G231S/I119V/I121R/I166T/I218V/L300P/L318F/N151K/N90K/P208A/P217A/Q86G/Q94H/R138H/R169H/T345S/A163C/Y108C)
Construct: made in house; host or cells: Escherichia coli (pET3a)
Assay: native mass spectrometry (nMS) of peptide binding to empty dsA2
Conditions: acceleration voltage 25 V, cone 150 V; ratio 1:5; raw data; mean of >=3 measurements
Ends that are not written are not given here.
# value in %; strip the unit string

// below: answered substances
PMVATV [PV6] ... 0.5
NLVPMV [NV6] ... 0.69
LVPMVATV [LV8] ... 3.9

Item under review: NLVPMVA [NA7] . Reported AUC dsA2/pep/pep?
1.4

Ok, now NLVPMVAT [NT8]
1

Ok, now YPNVNIHNF [YF9, reference compound]
0

Ok, now VPMVATV [VV7]
1.16

Ok, now GLGGGGGGV [GV9]
2.2

###

Target: dsA2: HLA-A*02:01(Y84C/A139C) disulfide mutant heavy chain / β2m complex (Homo sapiens, UniProt P04439, D140Y/D185E/D98H/E176V/E277Q/G131W/G231S/I119V/I121R/I166T/I218V/L300P/L318F/N151K/N90K/P208A/P217A/Q86G/Q94H/R138H/R169H/T345S/A163C/Y108C)
Construct: made in house; host or cells: Escherichia coli (pET3a)
Test: native mass spectrometry (nMS) of peptide binding to empty dsA2
Details: acceleration voltage 10 V, cone 150 V; ratio 1:5; raw data; mean of >=3 measurements
Ends that are not written are not given here.
Measure: AUC dsA2/pep/pep (%)
# value in %; strip the unit string

// below: answered substances
YPNVNIHNF [YF9, reference compound] ... 0
NLVPMV [NV6] ... 0.5

Item under review: NLVPMVA [NA7] . Reported AUC dsA2/pep/pep?
0.8

Ok, now PMVATV [PV6]
0.5

Ok, now VPMVATV [VV7]
1.7

Ok, now LVPMVATV [LV8]
2.8

Ok, now NLVPMVAT [NT8]
0.6

###

Target: dsA2: HLA-A*02:01(Y84C/A139C) disulfide mutant heavy chain / β2m complex (Homo sapiens, UniProt P04439, D140Y/D185E/D98H/E176V/E277Q/G131W/G231S/I119V/I121R/I166T/I218V/L300P/L318F/N151K/N90K/P208A/P217A/Q86G/Q94H/R138H/R169H/T345S/A163C/Y108C)
Construct: made in house; host or cells: Escherichia coli (pET3a)
Experiment: native mass spectrometry (nMS) of peptide binding to empty dsA2;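 note: native nano-electrospray MS on Q-Tof II in positive mode, dsA2 at 10 µM with peptide 50–200 µM, incubated ≥10 min on ice, argon collision gas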
Details: acceleration voltage 10 V, cone 150 V; ratio 1:5; raw data; mean of >=3 measurements
Ends that are not written are not given here.
Measure: AUC dsA2/pep (%)
# value in %; strip the unit string

// below: answered substances
PMVATV [PV6] ... 12
VPMVATV [VV7] ... 17
NLVPMVA [NA7] ... 16
NLVPMVAT [NT8] ... 28
NLVPMV [NV6] ... 10

Item under review: LVPMVATV [LV8] . Reported AUC dsA2/pep?
54
